# ASSAYED_SYSTEM: ERα (Homo sapiens, UniProt P03372)
# Construct: MCF-7 (ATCC; Cat. No.: HTB-22), a Luminal A breast cancer cell; culture medium EMEM; host or cells: MCF-7
# ASSAY_OVERVIEW: iELISA of ER degradation in MCF-7 cells (Effect Example 1)
# Format: cell-based
# TEST_CONDITIONS: MCF7; MCF-7 iELISA, processing time 4 hours, starting concentration 1 μM
Listed here are molecules together with their documented Dmax.
OBSERVATION_TYPE: Dmax (%)

- CS(=O)(=O)c1ccc(-c2ccc3cc(O)ccc3c2Oc2ccc(OCCOCCOCCOCCN3CCN(c4ccc5c(c4)C(=O)N(C4CCC(=O)NC4=O)C5)CC3)cc2)cc1 (stereo not shown): 69
- CCN(CCOc1ccc(Oc2c(-c3ccc(S(C)(=O)=O)cc3)ccc3cc(O)ccc23)cc1)C(=O)c1ccc(CCC2CCN(C3CCN(c4ccc5c(c4)C(=O)N(C4CCC(=O)NC4=O)C5=O)CC3)CC2)cc1 (stereo not shown): 45
- CS(=O)(=O)c1ccc(-c2ccc3cc(O)ccc3c2Oc2ccc(OCCOCCOCCOCCN3CCN(c4ccc5c(c4)C(=O)N(C4CCC(=O)NC4=O)C5=O)CC3)cc2)cc1 (stereo not shown): 47
- CCN(CCOc1ccc(Oc2c(-c3ccc(S(C)(=O)=O)cc3)ccc3cc(O)ccc23)cc1)CC(=O)N1CCN(c2ccc3c(c2)C(=O)N(C2CCC(=O)NC2=O)C3=O)CC1 (stereo not shown): 43
- CS(=O)(=O)c1ccc(-c2ccc3cc(O)ccc3c2Oc2ccc(OCCOCCOCCOCCOc3ccc4c(c3)C(=O)N(C3CCC(=O)NC3=O)C4)cc2)cc1 (stereo not shown): 32
- CS(=O)(=O)c1ccc(-c2ccc3cc(O)ccc3c2Oc2ccc(OCCCCN3CCN(c4ccc5c(c4)CN(C4CCC(=O)NC4=O)C5=O)CC3)cc2)cc1 (stereo not shown): 67
- CS(=O)(=O)c1ccc(-c2ccc3cc(O)ccc3c2Oc2ccc(OCCOCCOCCN3CCN(c4ccc5c(c4)C(=O)N(C4CCC(=O)NC4=O)C5)CC3)cc2)cc1 (stereo not shown): 54
- C[C@@H]1CN(CCOCC(=O)N2CCN(c3ccc4c(c3)C(=O)N(C3CCC(=O)NC3=O)C4=O)CC2)[C@@H](C)CN1CCOc1ccc(Oc2c(-c3ccc(S(C)(=O)=O)cc3)ccc3cc(O)ccc23)cc1 (stereo partly shown): 60
- CS(=O)(=O)c1ccc(-c2ccc3cc(O)ccc3c2Oc2ccc(N3CCN(CCCCCOCC(=O)N4CCN(c5ccc6c(c5)CN(C5CCC(=O)NC5=O)C6=O)CC4)CC3)cc2)cc1 (stereo not shown): 40
- CCN(CCCCCN(C)CC(=O)N1CCN(c2ccc3c(c2)C(=O)N(C2CCC(=O)NC2=O)C3=O)CC1)CCOc1ccc(Oc2c(-c3ccc(S(C)(=O)=O)cc3)ccc3cc(O)ccc23)cc1 (stereo not shown): 35
- CCN(CCOCCOCCN1CCN(c2ccc3c(c2)C(=O)N(C2CCC(=O)NC2=O)C3=O)CC1)CCOc1ccc(Oc2c(-c3ccc(S(C)(=O)=O)cc3)ccc3cc(O)ccc23)cc1 (stereo not shown): 34
- C[C@@H]1CN(CCOc2ccc(Oc3c(-c4ccc(S(C)(=O)=O)cc4)ccc4cc(O)ccc34)cc2)[C@@H](C)CN1CCOCC(=O)N1CCN(c2ccc3c(c2)CN(C2CCC(=O)NC2=O)C3=O)CC1 (stereo partly shown): 48
- CS(=O)(=O)c1ccc(-c2ccc3cc(O)ccc3c2Oc2ccc(OCCOCCOCCN3CCN(c4ccc5c(c4)CN(C4CCC(=O)NC4=O)C5=O)CC3)cc2)cc1 (stereo not shown): 35

---

# ASSAYED_SYSTEM: ERα (Homo sapiens)
# Construct: MCF-7 (ATCC; Cat. No.: HTB-22), a Luminal A breast cancer cell; culture medium EMEM; host or cells: MCF-7
# Sequence (P03372 1-595): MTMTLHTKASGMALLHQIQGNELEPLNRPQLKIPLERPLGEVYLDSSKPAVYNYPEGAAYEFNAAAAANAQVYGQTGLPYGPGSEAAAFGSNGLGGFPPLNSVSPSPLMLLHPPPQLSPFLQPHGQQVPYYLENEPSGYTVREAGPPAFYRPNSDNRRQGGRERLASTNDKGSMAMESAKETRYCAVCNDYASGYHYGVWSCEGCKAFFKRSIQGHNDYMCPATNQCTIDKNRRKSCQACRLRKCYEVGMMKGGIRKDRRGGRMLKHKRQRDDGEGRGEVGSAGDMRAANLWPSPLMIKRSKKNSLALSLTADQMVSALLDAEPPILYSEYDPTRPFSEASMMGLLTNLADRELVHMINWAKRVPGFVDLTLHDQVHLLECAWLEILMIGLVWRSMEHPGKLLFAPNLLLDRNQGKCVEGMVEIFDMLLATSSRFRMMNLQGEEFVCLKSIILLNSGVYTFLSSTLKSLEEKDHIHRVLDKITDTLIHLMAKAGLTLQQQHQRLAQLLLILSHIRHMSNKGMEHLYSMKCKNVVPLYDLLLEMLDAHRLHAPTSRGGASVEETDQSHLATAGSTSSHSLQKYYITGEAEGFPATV
# ASSAY_OVERVIEW: iELISA of ER degradation in MCF-7 cells (Effect Example 1)
# Format: cell-based
# TEST_CONDITIONS: MCF-7 iELISA, processing time 4 hours, starting concentration 1 μM; read-out: DC50 (drug concentration corresponding to 50% protein degradation)
OBSERVATION_TYPE: DC50 (nM)

* CS(=O)(=O)c1ccc(-c2ccc3cc(O)ccc3c2Oc2ccc(OCCOCCOCCOCCN3CCN(c4ccc5c(c4)C(=O)N(C4CCC(=O)NC4=O)C5)CC3)cc2)cc1 (stereo not shown) | 7.5
* CS(=O)(=O)c1ccc(-c2ccc3cc(O)ccc3c2Oc2ccc(OCCCCN3CCN(c4ccc5c(c4)CN(C4CCC(=O)NC4=O)C5=O)CC3)cc2)cc1 (stereo not shown) | 0.5
* CS(=O)(=O)c1ccc(-c2ccc3cc(O)ccc3c2Oc2ccc(OCCOCCOCCN3CCN(c4ccc5c(c4)C(=O)N(C4CCC(=O)NC4=O)C5)CC3)cc2)cc1 (stereo not shown) | 4.9
* C[C@@H]1CN(CCOCC(=O)N2CCN(c3ccc4c(c3)C(=O)N(C3CCC(=O)NC3=O)C4=O)CC2)[C@@H](C)CN1CCOc1ccc(Oc2c(-c3ccc(S(C)(=O)=O)cc3)ccc3cc(O)ccc23)cc1 (stereo partly shown) | 7.6

---

# Tested on: MCF-7
# ASSAY_OVERVIEW: CellTiter-Glo cell proliferation inhibition, MCF-7 (Effect Example 2)
# Assay type: cell-based
# TEST_CONDITIONS: Homo sapiens, MCF7, 144 h; MCF-7 (CTG), 6 days, starting concentration 10 μM; read-out: IH % max (maximum inhibition percentage)
OBSERVATION_TYPE: inhibition at up to 10 µM (%)

- CCN(CCOCCOCC(=O)N1CCN(c2ccc3c(c2)C(=O)N(C2CCC(=O)NC2=O)C3)CC1)CCOc1ccc(Oc2c(-c3ccc(S(C)(=O)=O)cc3)ccc3cc(O)ccc23)cc1 (centres unmarked) [Compound D44]: 33
- CCN(CCOCCOCCNc1cccc2c1C(=O)N(C1CCC(=O)NC1=O)C2=O)CCOc1ccc(Oc2c(-c3ccc(S(C)(=O)=O)cc3)ccc3cc(O)ccc23)cc1 (centres unmarked) [Compound D42]: 37
- CCN(CCCCCCCCCc1ccc2c(c1)C(=O)N(C1CCC(=O)NC1=O)C2=O)CCOc1ccc(Oc2c(-c3ccc(S(C)(=O)=O)cc3)ccc3cc(O)ccc23)cc1 (centres unmarked) [Compound D63]: 98.9
- CS(=O)(=O)c1ccc(-c2ccc3cc(O)ccc3c2Oc2ccc(OCCOCCN3CCN(c4ccc5c(c4)C(=O)N(C4CCC(=O)NC4=O)C5)CC3)cc2)cc1 (centres unmarked) [Compound D43]: 36
- CS(=O)(=O)c1ccc(-c2ccc3cc(O)ccc3c2Oc2ccc(OCCOCCOCCN3CCN(c4ccc5c(c4)C(=O)N(C4CCC(=O)NC4=O)C5)CC3)cc2)cc1 (centres unmarked) [Compound D22]: 38

---

# Tested on: MCF-7
# ASSAY_OVERVIEW: CellTiter-Glo cell proliferation inhibition, MCF-7 (Effect Example 2)
# Format: cell-based
# TEST_CONDITIONS: Homo sapiens, MCF7, 144 h; MCF-7 (CTG), 6 days, starting concentration 10 μM; read-out: IH % max (maximum inhibition percentage)
Listing: inhibition at up to 10 µM of selected compounds
OBSERVATION_TYPE: inhibition at up to 10 µM (%)

* CS(=O)(=O)c1ccc(-c2ccc3cc(O)ccc3c2Oc2ccc(OCCOCCOCCOCCNc3cccc4c3CN(C3CCC(=O)NC3=O)C4=O)cc2)cc1 (centres unmarked) | 38
* CS(=O)(=O)c1ccc(-c2ccc3cc(O)ccc3c2Oc2ccc(OCCCCN3CCN(c4ccc5c(c4)CN(C4CCC(=O)NC4=O)C5=O)CC3)cc2)cc1 (centres unmarked) | 37
* COc1ccc2c(Oc3ccc(OCCN4CCN(c5ccc6c(c5)CN(C5CCC(=O)NC5=O)C6=O)CC4)cc3)c(-c3ccc(S(C)(=O)=O)cc3)ccc2c1 (centres unmarked) | 30
* CS(=O)(=O)c1ccc(-c2ccc3cc(O)ccc3c2Oc2ccc(OCCOCCOCCOCCN3CCN(c4ccc5c(c4)C(=O)N(C4CCC(=O)NC4=O)C5)CC3)cc2)cc1 (centres unmarked) | 44
* CCN(CCOCCOCCOCCNc1ccc2c(c1)C(=O)N(C1CCC(=O)NC1=O)C2=O)CCOc1ccc(Oc2c(-c3ccc(S(C)(=O)=O)cc3)ccc3cc(O)ccc23)cc1 (centres unmarked) | 45.1
* CCN(CCOc1ccc(Oc2c(-c3ccc(S(C)(=O)=O)cc3)ccc3cc(O)ccc23)cc1)CC(=O)N1CCN(c2ccc3c(c2)C(=O)N(C2CCC(=O)NC2=O)C3=O)CC1 (centres unmarked) | 56
* CCN(CCOCCOc1cccc2c1C(=O)N(C1CCC(=O)NC1=O)C2=O)CCOc1ccc(Oc2c(-c3ccc(S(C)(=O)=O)cc3)ccc3cc(O)ccc23)cc1 (centres unmarked) | 39
* CCN(CCCCCN(C)CC(=O)N1CCN(c2ccc3c(c2)C(=O)N(C2CCC(=O)NC2=O)C3=O)CC1)CCOc1ccc(Oc2c(-c3ccc(S(C)(=O)=O)cc3)ccc3cc(O)ccc23)cc1 (centres unmarked) | 32
* C[C@@H]1CN(CCOc2ccc(Oc3c(-c4ccc(S(C)(=O)=O)cc4)ccc4cc(O)ccc34)cc2)[C@@H](C)CN1CCN1CCN(c2ccc3c(c2)C(=O)N(C2CCC(=O)NC2=O)C3)CC1 (some centres unmarked) | 45.6
* CCN(CCOCCN1CCN(c2ccc3c(c2)C(=O)N(C2CCC(=O)NC2=O)C3)CC1)CCOc1ccc(Oc2c(-c3ccc(S(C)(=O)=O)cc3)ccc3cc(O)ccc23)cc1 (centres unmarked) | 52.9
* CN(CCOCCN1CCN(c2ccc3c(c2)CN(C2CCC(=O)NC2=O)C3=O)CC1)CCOc1ccc(Oc2c(-c3ccc(S(C)(=O)=O)cc3)ccc3cc(O)ccc23)cc1 (centres unmarked) | 40

Taken from patent US20240131168A1.
